Field: cytotoxicity at 10 µM. Provide a value for each of the compounds that follow.
Assay: Toxicity liver stage against HepG2, at 10uM
Type: cell-based
Design: test concentration 10 uM, cell line HepG2-A16-CD81EGFP
Details: human, HepG2-A16-CD81EGFP cells; read-out: INHIBITION
Numbers only, in %.

Compound | Unit Name | cytotoxicity at 10 µM
Cc1n[nH]c(C2CN(C(=O)c3ccoc3C)CCO2)n1 (centres undefined) | % | -22.4
CN(Cc1ccc(C#N)cc1)C(=O)c1ccnc(OC2CCC2)c1 | % | 7.59
CC1CN(C)CCN1C(=O)c1ccn(-c2cccc(Cl)c2)n1 (centres undefined) | % | -26.3
COCC[C@]1(O)CCN(C(=O)CCc2cnn(C)c2)C[C@H]1C | % | 1.72

Value sought for every listed compound: cytotoxicity at 10 µM.
1. CCNC(=O)N(C)C(c1cccc(F)c1)c1ccccn1 (centres undefined)
2. O=C(c1cccc2c1OCCO2)N1CCCC1c1noc(C2CC2)n1 (centres undefined)
3. COc1ccc(C(=O)N2CCCCC2c2nccs2)c(OC)c1 (centres undefined)
4. CCN1CCC2(CCN(Cc3ccc(OC)cc3)CC2)C1=O
5. CCc1noc(C(C)N(C)CC(=O)Nc2c(C)cccc2C)n1 (centres undefined)

[-11.6, -14.5, -10.7, -0.0368, 2.14]

Respectfully, I request cytotoxicity at 10 µM for each entry included below.
1. O=C(c1cc[nH]n1)N1CCC(c2cc(Nc3ccccn3)n[nH]2)CC1
2. Cc1nn(C)c(N(C)C)c1CNCCNS(C)(=O)=O

[-37.1, -5.05]

# batch size: 5; output cytotoxicity at 10 µM per entry
1. COc1ccccc1C(C)N1CCN(S(=O)(=O)N(C)C)CC1 (centres undefined)
2. CN(CCc1ccccn1)Cc1nccn1Cc1ccccc1
3. Cc1nc(N2CCOCC2)nc(C)c1NS(=O)(=O)c1ccccc1
4. CNC(=O)c1ncn2c1CN(CCC(C)C)S(=O)(=O)c1ccccc1-2
5. Cc1nnc2n1CCN(CC(=O)NC(C)c1cc3ccccc3o1)C2 (centres undefined)

1. -8.8
2. 10.1
3. -1.44
4. -78.8
5. -9.79
